Biological target: Protein-arginine deiminase type-4 (Homo sapiens) (UniProt Q9UM07)
Sequence (Q9UM07 whole entry, looked up): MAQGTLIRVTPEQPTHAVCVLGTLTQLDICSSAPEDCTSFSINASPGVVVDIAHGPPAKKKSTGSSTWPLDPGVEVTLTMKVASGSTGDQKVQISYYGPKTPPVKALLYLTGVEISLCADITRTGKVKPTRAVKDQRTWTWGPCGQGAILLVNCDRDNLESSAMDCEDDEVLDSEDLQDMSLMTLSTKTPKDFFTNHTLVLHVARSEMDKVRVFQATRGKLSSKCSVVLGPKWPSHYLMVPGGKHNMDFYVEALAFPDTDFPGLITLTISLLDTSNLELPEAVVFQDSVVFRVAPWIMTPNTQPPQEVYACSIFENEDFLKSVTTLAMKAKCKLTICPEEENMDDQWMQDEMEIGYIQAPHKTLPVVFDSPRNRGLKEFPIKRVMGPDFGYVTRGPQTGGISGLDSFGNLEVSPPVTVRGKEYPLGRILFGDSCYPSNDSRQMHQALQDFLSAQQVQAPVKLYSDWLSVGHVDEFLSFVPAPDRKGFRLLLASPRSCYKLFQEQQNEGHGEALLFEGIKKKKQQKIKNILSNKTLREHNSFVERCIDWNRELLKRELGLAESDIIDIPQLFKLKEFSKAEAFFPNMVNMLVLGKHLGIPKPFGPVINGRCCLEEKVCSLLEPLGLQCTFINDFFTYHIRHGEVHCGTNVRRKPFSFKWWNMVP
Experiment: blockers of protein arginine deiminase 4 – biochemical, fluorescence polarization, primary screen (AID 463073);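 note: 0% = PAD4 with DMSO and 100% = wells lacking PAD4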
Conditions: recombinant PAD4, RFA probe fluorescence polarization; at 5 µM; active compounds read high
Screen size: about 2,000 compounds; about 10 (0.5%) were called active. The list comes from a sample in which actives are over-represented; it also holds close analogues and randomly drawn compounds.
As shown below, each of these molecules has a reported inhibition value.

molecule	inhibition
CC1CCC[C@H](O)CCCCCc2cc(O)cc(O)c2C(=O)O1 (some centres undefined)	2.98% (inactive)
CN1C2CCC1CC(OC(=O)CCN1CCCC1)C2 (centres undefined)	0.67% (inactive)
C[C@]12CCC(=O)C=C1CC[C@@H]1[C@@H]2C(=O)C[C@]2(C)C(=O)CC[C@@H]12	3.91% (inactive)
O=C1C(=O)c2ccccc2-c2ccccc21	94.3% (active)
